# Lookup of reported EC50 keyed by entry
- SYSTEM_UNDER_TEST: human APJ receptor (Homo sapiens (Human), UniProt P35414)
- Sequence (P35414 whole entry): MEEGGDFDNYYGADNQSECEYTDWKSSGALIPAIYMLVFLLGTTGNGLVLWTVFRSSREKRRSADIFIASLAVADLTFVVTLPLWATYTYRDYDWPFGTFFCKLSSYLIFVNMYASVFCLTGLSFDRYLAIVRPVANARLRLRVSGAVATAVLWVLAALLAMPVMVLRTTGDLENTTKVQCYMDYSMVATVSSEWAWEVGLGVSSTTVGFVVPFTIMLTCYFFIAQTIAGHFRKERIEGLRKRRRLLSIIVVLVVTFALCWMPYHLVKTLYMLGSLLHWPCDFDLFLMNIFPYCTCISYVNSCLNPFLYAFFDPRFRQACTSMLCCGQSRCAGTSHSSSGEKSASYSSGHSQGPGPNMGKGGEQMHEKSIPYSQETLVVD
- PROCEDURE_DETAILS: biochemical
- STATED_CONDITIONS: read-out: Activity hAPJ SPA EC50 IP
The reply should contain only the number, in nM.

CCOc1cccc(OC)c1-n1c(NS(=O)(=O)[C@@H](C)[C@H](OC)c2ncc(C)cn2)nnc1-c1cccc(OC)n1 (single isomer, unassigned): 0.31

*Q* Answer with the recorded EC50 of COc1cccc(OC)c1-n1c(NS(=O)(=O)[C@@H](C)[C@H](OC)C2CC(C)(C)C2)nnc1-c1cncc(C)c1 (single isomer, unassigned) [Example 726.0] only.
*A* 7.5

*Q* Provide EC50 value for the following compound: COc1cccc(OC)c1-n1c(NS(=O)(=O)[C@@H](C)[C@H](C)c2ncc(F)cn2)nnc1-c1cncc(C)c1 (single isomer, unassigned) [Example 236.0]
*A* 100

*Q* Give the measured EC50 for COc1cccc(OC)c1-n1c(NS(=O)(=O)[C@@H](C)[C@H](OC)c2ccc(F)cc2C#N)nnc1-c1cncc(C)c1 (single isomer, unassigned)
*A* 130

Hey, just so you know, these numbers are from patent US10058550B2.
